Entry source: paper PMC8876931

# Metabolites Pattern in TEF and Blood (Abundance) annotations
# method.description: In vivo pattern recognition of TEF: UPLC–MS metabolic profiling of blood after oral administration
# Parameters: species or system rats
# conditions.used: blood 3 h after oral TEF to rats; UPLC–MS abundance of mass

The reported Metabolites Pattern in TEF and Blood (Abundance) of the compound CC(C)CCCCCCCCCCCC(=O)O [13-methylmyristic acid] was 23,412

Next:
The reported Metabolites Pattern in TEF and Blood (Abundance) of the compound OC[C@H]1OC(c2c(O)cc3c(c2O)C[C@@H](O)[C@@H](c2ccc(O)c(O)c2)O3)[C@H](O)[C@@H](O)[C@@H]1O (stereo partly drawn) [Epicatechin-6-glucoside] was 25,056

The reported Metabolites Pattern in TEF and Blood (Abundance) of the compound CC(=O)O[C@@H]1C(=O)C2=C(C(=O)C[C@H]3C(C)(C)[C@@H](O)CC[C@]23C)[C@]2(C)C(=O)C[C@H]([C@H](C)CC(=O)CC(C)C(=O)O)[C@@]12C (stereo partly drawn) [GA-H, ganoderic acid H] was 54,675

###

# method.description: In vivo pattern recognition of TEF: UPLC–MS metabolic profiling of blood after oral administration
# Set-up: species or system rats
# conditions.used: blood 3 h after oral TEF to rats; UPLC–MS abundance of mass
property.label: Metabolites Pattern in TEF and Blood (Abundance)

The reported Metabolites Pattern in TEF and Blood (Abundance) of the compound "C[C@H](CC(=O)C[C@@H](C)[C@H]1C[C@H](O)[C@@]2(C)C3=C(C(=O)C[C@]12C)[C@@]1(C)CCC(=O)C(C)(C)[C@@H]1C[C@@H]3O)C(=O)O" was 37,652

The reported Metabolites Pattern in TEF and Blood (Abundance) of the compound CC(CC(=O)C[C@@H](C)[C@H]1CC(=O)[C@@]2(C)C3=C(C(=O)C[C@]12C)[C@@]1(C)CCC(=O)C(C)(C)[C@@H]1C[C@@H]3O)C(=O)O (stereo partly drawn) was 37,654

The reported Metabolites Pattern in TEF and Blood (Abundance) of the compound "CCCCC/C=C\C/C=C\CCCCCCCC(=O)O" was 23,451

###

# method.description: Pharmacokinetic analysis of TEF in terms of GA-H after oral administration to rats (HPLC of plasma and urine)
# Assay type: in vivo, Albino Wistar rats
# conditions.used: Albino Wistar, rat, plasma, po, 85 mg/kg
property.label: AUC(0-t) (ng·h/mL)
Respond numerically; units are ng·h/mL and should not be typed.

The reported AUC(0-t) of the molecule CC(=O)O[C@@H]1C(=O)C2=C(C(=O)C[C@H]3C(C)(C)[C@@H](O)CC[C@]23C)[C@]2(C)C(=O)C[C@H]([C@H](C)CC(=O)CC(C)C(=O)O)[C@@]12C (stereo partly shown) [GA-H, ganoderic acid H] was 9800

###

# method.description: Pharmacokinetic analysis of TEF in terms of GA-H after oral administration to rats (HPLC of plasma and urine)
# Assay type: in vivo, Albino Wistar rats
# conditions.used: Albino Wistar, rat, plasma, po, 85 mg/kg; read-out: maximum plasma concentration (Cmax)
property.label: Cmax (ng/mL)
Respond numerically; units are ng/mL and should not be typed.

The reported Cmax of the compound CC(=O)O[C@@H]1C(=O)C2=C(C(=O)C[C@H]3C(C)(C)[C@@H](O)CC[C@]23C)[C@]2(C)C(=O)C[C@H]([C@H](C)CC(=O)CC(C)C(=O)O)[C@@]12C (stereo partly shown) was 2510

###

# method.description: In vivo pattern recognition of TEF: UPLC–MS metabolic profiling of blood after oral administration
# Design: species or system rats
# conditions.used: blood 24 h after oral TEF to rats; UPLC–MS abundance of mass
property.label: Metabolites Pattern in TEF and Blood (Abundance)

# example entries with known answers
The reported Metabolites Pattern in TEF and Blood (Abundance) of the compound CC(CC(=O)C[C@@H](C)[C@H]1CC(=O)[C@@]2(C)C3=C(C(=O)C[C@]12C)[C@@]1(C)CCC(=O)C(C)(C)[C@@H]1C[C@@H]3O)C(=O)O (some centres unmarked) was 21,234

The reported Metabolites Pattern in TEF and Blood (Abundance) of the compound "CC(C)CCCCCCCCCCCC(=O)O" was 16,734

The reported Metabolites Pattern in TEF and Blood (Abundance) of the compound "CCCCC/C=C\C/C=C\CCCCCCCC(=O)O" was 12,112

The reported Metabolites Pattern in TEF and Blood (Abundance) of the compound "C[C@H](CC(=O)C[C@@H](C)[C@H]1C[C@H](O)[C@@]2(C)C3=C(C(=O)C[C@]12C)[C@@]1(C)CCC(=O)C(C)(C)[C@@H]1C[C@@H]3O)C(=O)O" was 21,548

Let us examine a further case.
The reported Metabolites Pattern in TEF and Blood (Abundance) of the compound OC[C@H]1OC(c2c(O)cc3c(c2O)C[C@@H](O)[C@@H](c2ccc(O)c(O)c2)O3)[C@H](O)[C@@H](O)[C@@H]1O (some centres unmarked) [Epicatechin-6-glucoside] was 21,324
